// reported fold change of affinity per item
Molecular target: T1, Human CD3eg linker (human)
T1 construct: Single chain: epsilon and gamma subunits of human CD3 joined by a 29-mer linker, Flag-tag at the C-terminus; also called recombinant human CD3
T1 chain: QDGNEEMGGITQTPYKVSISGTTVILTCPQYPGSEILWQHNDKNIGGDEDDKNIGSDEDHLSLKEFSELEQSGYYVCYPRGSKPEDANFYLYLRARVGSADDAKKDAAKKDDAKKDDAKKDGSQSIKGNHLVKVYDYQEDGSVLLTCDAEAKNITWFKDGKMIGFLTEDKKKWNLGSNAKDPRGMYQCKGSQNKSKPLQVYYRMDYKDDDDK
Assay: Biacore SPR, vs template H183/L072
// return numeric value only (unit: fold, not printed)

| Binder | Metric | Value Units | Readout Value |
| --- | --- | --- | --- |
| H183/L072 VH Y58R (antibody, name in Kabat numbering, V domains shown) VH: QVQLVESGGGLVQPGRSLRLSCAASGFTFSNAWMHWVRQAPGKGLEWVAQIKDKGNAYAARYAPSVKGRFTISRDDSKNSIYLQMNSLKTEDTAVYYCHYVHYASASTVLPAFGVDAWGQGTTVTVSS VL: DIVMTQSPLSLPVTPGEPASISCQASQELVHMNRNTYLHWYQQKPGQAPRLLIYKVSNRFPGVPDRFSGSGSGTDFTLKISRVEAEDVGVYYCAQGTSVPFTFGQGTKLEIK | fold change of affinity | fold | 0.5 |

input: Which fold change of affinity value is on record for H183/L072 VH A57W (antibody, name in Kabat numbering, V domains shown) VH: QVQLVESGGGLVQPGRSLRLSCAASGFTFSNAWMHWVRQAPGKGLEWVAQIKDKGNAYAWYYAPSVKGRFTISRDDSKNSIYLQMNSLKTEDTAVYYCHYVHYASASTVLPAFGVDAWGQGTTVTVSS VL: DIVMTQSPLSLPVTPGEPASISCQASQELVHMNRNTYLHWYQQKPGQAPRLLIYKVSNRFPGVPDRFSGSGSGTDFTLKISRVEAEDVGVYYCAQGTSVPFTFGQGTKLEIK ?
output: 0.4

input: Which fold change of affinity value is on record for H183/L072 VH H35E (antibody, name in Kabat numbering, V domains shown) VH: QVQLVESGGGLVQPGRSLRLSCAASGFTFSNAWMEWVRQAPGKGLEWVAQIKDKGNAYAAYYAPSVKGRFTISRDDSKNSIYLQMNSLKTEDTAVYYCHYVHYASASTVLPAFGVDAWGQGTTVTVSS VL: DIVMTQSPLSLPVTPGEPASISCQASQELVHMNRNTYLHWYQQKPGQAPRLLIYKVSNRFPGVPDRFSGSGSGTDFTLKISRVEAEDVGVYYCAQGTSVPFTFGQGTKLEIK ?
output: 0

Origin of the recorded values: patent US20210388087A1
